Experiment: in vitro
Conditions: human
recorded.endpoint: CC50

**Query** Report CC50 for COC(=O)N[C@H](C(=O)N1CCC[C@H]1c1nc(-c2ccc(-c3ccc(-c4c[nH]c([C@@H]5CCCN5C(=O)[C@@H](NC(=O)OC)C(C)C)n4)cc3)cc2)c[nH]1)C(C)C
**Result** > 25 nM

###

Assay: in vitro
Details: human
recorded.endpoint: CC50

**Query** Report CC50 for CCC(CC)COC(=O)[C@H](C)N[P@](=O)(OC[C@H]1O[C@@](C#N)(c2ccc3c(N)ncnn23)[C@H](O)[C@@H]1O)Oc1ccccc1 [Remdesivir]
**Result** > 10 µM
